Hey, just so you know, these numbers are from patent US9221809B2.

Each entry below carries its reported IC50.
# Subject Of Test: IRAK4 (Homo sapiens (Human), UniProt Q9NWZ3)
# Sequence (Q9NWZ3 whole entry): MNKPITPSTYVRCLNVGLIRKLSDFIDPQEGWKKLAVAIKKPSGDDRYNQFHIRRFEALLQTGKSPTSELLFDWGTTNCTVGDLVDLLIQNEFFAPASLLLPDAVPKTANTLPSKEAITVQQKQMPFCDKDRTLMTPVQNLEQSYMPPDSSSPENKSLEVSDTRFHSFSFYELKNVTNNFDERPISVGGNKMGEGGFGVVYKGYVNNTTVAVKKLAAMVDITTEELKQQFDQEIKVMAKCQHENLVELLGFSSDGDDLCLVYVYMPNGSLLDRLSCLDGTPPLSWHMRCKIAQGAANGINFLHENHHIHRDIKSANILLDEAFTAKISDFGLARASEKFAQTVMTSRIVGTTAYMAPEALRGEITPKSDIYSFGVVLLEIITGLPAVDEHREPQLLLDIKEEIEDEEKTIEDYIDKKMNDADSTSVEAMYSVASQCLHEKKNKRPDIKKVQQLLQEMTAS
# Test Method Notes: IRAK4 kinase activity, IMAP fluorescence polarization assay
# Format: biochemical
# Reported Conditions: 100 μM ATP; read-out: IRAK4 IC50
Answer with the value and then the unit.

Below: 4 compounds and their reported IC50.
O=c1[nH]c(N2CC[C@@H](CO)C2)nc(N[C@@H]2CCCNC2)c1-c1ccc2ccccc2n1 [Example 179] : 13 nM
Cc1cnc(C)c(N2CCN(c3nc(N[C@@H]4CCCNC4)c(-c4nc5ccccc5s4)c(=O)[nH]3)CC2)n1 [Example 160] : 22 nM
COc1ccc(N2CC3CC2CN3c2nc(N[C@@H]3CCCNC3)c(-c3ccc4ccccc4n3)c(=O)[nH]2)cc1 (some centres unmarked) [Example 195] : 757 nM
O=c1[nH]c(N2CCOCC2)nc(N[C@@H]2CCCNC2)c1-c1nc(-c2ccc(Cl)cc2)cs1 [Example 202] : 153 nM

IC50 reported for this compound O=c1[nH]c(N2CCN(c3ccccc3Cl)CC2)nc(N[C@@H]2CCCNC2)c1-c1nc2ccccc2s1 [Example 151] : 27 nM

What the record says about CN(C)[C@H]1CCN(c2nc(N[C@@H]3CCCNC3)c(-c3ccc4ccccc4n3)c(=O)[nH]2)C1 [Example 166] : IC50 is 158 nM

Value of measured IC50 for the entry O=c1[nH]c(N2CCOCC2)nc(N[C@@H]2CCCNC2)c1-c1nc(-c2cc(F)cc(F)c2)cs1 [Example 203] : 99 nM

The recorded IC50 for O=c1[nH]c(N2CC3CC2CN3)nc(N[C@@H]2CCCNC2)c1-c1ccc2ccccc2n1 (some centres unmarked) [Example 194] is 169 nM

// recorded IC50 for CS(=O)(=O)c1ccc(N2CCN(c3nc(N[C@@H]4CCCNC4)c(-c4nc5ccccc5s4)c(=O)[nH]3)CC2)c(Cl)c1 [Example 147] : 11 nM

Looking up O=c1[nH]c(N2CCN(c3ccc(Cl)c(Cl)c3)CC2)nc(N[C@@H]2CCCNC2)c1-c1nc2ccccc2s1 [Example 153] , I found its IC50 recorded as 57 nM

Summary for this compound, Cc1ccccc1C1CCN(c2nc(N[C@@H]3CCCNC3)c(-c3ccc4ccccc4n3)c(=O)[nH]2)CC1 [Example 188] : IC50 is 17 nM

Entry Cc1nonc1N1CCN(c2nc(N[C@@H]3CCCNC3)c(-c3nc4ccccc4s3)c(=O)[nH]2)CC1 [Example 139] ; IC50 = 15 nM

# compound O=c1[nH]c(N2CC(O)(C(F)(F)F)C2)nc(N[C@@H]2CCCNC2)c1-c1ccc2ccccc2n1 [Example 170] ; its IC50 = 18 nM

IC50 recorded for this compound, CC(C)(O)C1CN(c2nc(N[C@@H]3CCCNC3)c(-c3ccc4ccccc4n3)c(=O)[nH]2)C1 [Example 172] , is 42 nM

Per the records, this compound ( O=c1[nH]c(N2CC[C@H](F)C2)nc(N[C@@H]2CCCNC2)c1-c1ccc2ccccc2n1 [Example 177] ) has IC50 equal to 13 nM

Record CS(=O)(=O)c1cc(F)ccc1N1CCN(c2nc(N[C@@H]3CCCNC3)c(-c3nc4ccccc4s3)c(=O)[nH]2)CC1 [Example 150] . Reported IC50: 14 nM

IC50 reading for CS(=O)(=O)c1ccccc1N1CCN(c2nc(N[C@@H]3CCCNC3)c(-c3nc4ccccc4s3)c(=O)[nH]2)CC1 [Example 156] : 9 nM

What the record says about O=c1[nH]c(N2CCN(c3ccccc3C(F)(F)F)CC2)nc(N[C@@H]2CCCNC2)c1-c1nc2ccccc2s1 [Example 148] : IC50 is 45 nM

Reported IC50 ( O=c1[nH]c(N2CC3CC3C2)nc(N[C@@H]2CCCNC2)c1-c1ccc2ccccc2n1 (some centres unmarked) [Example 168] ) = 34 nM

Reported IC50 of O=c1[nH]c(N2CCC(c3cccc(F)n3)CC2)nc(N[C@@H]2CCCNC2)c1-c1ccc2ccccc2n1 [Example 193] : 45 nM
